Entry source: patent US7045532B2

Biological target: ACE-2 (Homo sapiens)
Construct: a stop codon inserted after the serine immediately preceding the transmembrane domain; made in house; host or cells: CHO K1 cells (transient transfection, purified from conditioned medium)
Assay: ACE-2 Competitive Substrate Assay (ACS Assay)
Format: biochemical
Settings: Ki class; compounds tested in 5% DMSO, 12 compound concentrations, Ki=Kiapp/(1+[S]/Km); read-out: Human ACE-2 Activity
# maps each entry to its Ki

These solved cases illustrate the format of a correct answer.
[
  {
    "Compound": "CC(C)C[C@H](N[C@@H](Cc1ccnn1Cc1cc(Cl)cc(Cl)c1)C(=O)O)C(=O)O [MV]",
    "Ki": "< 100 nM"
  },
  {
    "Compound": "CC(C)CC(N[C@@H](C[C@H]1COC(=O)N1Cc1cc(Cl)cc(Cl)c1)C(=O)O)C(=O)O (stereo in doubt) [NN]",
    "Ki": "100 to 500 nM"
  },
  {
    "Compound": "Cc1ccc2nc(NC(=O)C[C@H](N[C@@H](CC(C)C)C(=O)O)C(=O)O)sc2c1 [NW]",
    "Ki": "100 to 500 nM"
  },
  {
    "Compound": "CC(C)CC(N[C@@H](Cc1cncn1Cc1ccccc1CS(=O)(=O)c1ccccc1)C(=O)O)C(=O)O (single isomer, unassigned) [IA]",
    "Ki": "> 500 nM"
  },
  {
    "Compound": "CC(C)C[C@H](N[C@@H](Cn1ccn(C2CCCCC2)c1=O)C(=O)O)C(=O)O [MN]",
    "Ki": "100 to 500 nM"
  },
  {
    "Compound": "CC(C)CC(N[C@@H](Cc1cncn1CCc1ccccc1)C(=O)O)C(=O)O (single isomer, unassigned) [JL]",
    "Ki": "> 500 nM"
  },
  {
    "Compound": "CC(C)C[C@H](N[C@@H](Cc1cccc(OCc2cc(Cl)cc(Cl)c2)c1)C(=O)O)C(=O)O [NY]",
    "Ki": "< 100 nM"
  }
]

In the following, a different compound is considered.
-- ask Short answer please: Ki, ACE-2 (Homo sapiens), entry CC(C)C[C@H](N[C@@H](Cn1ccn(CCc2ccc(F)cc2)c1=O)C(=O)O)C(=O)O [NK]
-- reply 100 to 500 nM

* * *

Biological target: Carboxypeptidase A (Bos taurus, UniProt P00730)
Sequence (P00730 111-419): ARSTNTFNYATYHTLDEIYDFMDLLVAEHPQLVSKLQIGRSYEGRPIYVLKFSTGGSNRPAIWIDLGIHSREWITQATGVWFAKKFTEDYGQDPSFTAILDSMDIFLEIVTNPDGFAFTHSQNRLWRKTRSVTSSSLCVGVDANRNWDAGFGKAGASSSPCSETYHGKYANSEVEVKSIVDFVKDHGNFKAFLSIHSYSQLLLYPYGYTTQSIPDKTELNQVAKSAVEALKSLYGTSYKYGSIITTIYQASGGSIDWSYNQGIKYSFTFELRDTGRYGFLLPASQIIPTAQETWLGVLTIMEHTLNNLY
Assay: Carboxypeptidase A activity assay
Format: biochemical
Settings: Ki class; compounds tested in 5% DMSO, 12 compound concentrations
pKi: −log10 of the molar value.
Endpoint: pKi

-- ask Notebook entry, Carboxypeptidase A (Bos taurus, UniProt P00730) assay: pKi of Cc1cc(C)cc(Cn2cncc2C[C@H](NC(CC(C)C)C(=O)O)C(=O)O)c1 (single isomer, unassigned) = ?
-- reply 4.30 to 5.00

-- ask Recall the recorded pKi for Cc1cccc(Cn2cncc2C[C@H](NC(CC(C)C)C(=O)O)C(=O)O)c1 (single isomer, unassigned) with Carboxypeptidase A (Bos taurus, UniProt P00730) and state it.
-- reply 4.30 to 5.00

-- ask // lookup pKi | system=Carboxypeptidase A (Bos taurus, UniProt P00730) | key= CC(C)CC(N[C@@H](Cc1cncn1Cc1ccc(C#N)cc1)C(=O)O)C(=O)O (single isomer, unassigned)
-- reply 4.30 to 5.00

-- ask Can you look up pKi on Carboxypeptidase A (Bos taurus, UniProt P00730) for CC(C)CC(N[C@@H](Cc1cncn1Cc1ccc(C(C)C)cc1)C(=O)O)C(=O)O (single isomer, unassigned) ?
-- reply > 5.00

* * *

Biological target: ACE-2 (Homo sapiens)
Construct: a stop codon inserted after the serine immediately preceding the transmembrane domain; made in house; host or cells: CHO K1 cells (transient transfection, purified from conditioned medium)
Assay: ACE-2 Competitive Substrate Assay (ACS Assay)
Type: biochemical
Conditions: Ki class; compounds tested in 5% DMSO, 12 compound concentrations, Ki=Kiapp/(1+[S]/Km); read-out: Human ACE-2 Activity
# Ki per entry

Consider the reported Ki for these compounds:
[
  {
    "Compound": "CC(C)CC(N[C@@H](Cc1cncn1Cc1cccc(F)c1F)C(=O)O)C(=O)O (single isomer, unassigned) [IU]",
    "Tested system": "ACE-2 (Homo sapiens)",
    "Ki": "< 100 nM"
  },
  {
    "Compound": "CC(C)C[C@H](N[C@@H](CC(=O)Nc1nc2ccccc2s1)C(=O)O)C(=O)O",
    "Tested system": "ACE-2 (Homo sapiens)",
    "Ki": "< 100 nM"
  },
  {
    "Compound": "CC(C)C[C@H](N[C@@H](Cc1cncn1Cc1cc(Cl)cc(Cl)c1)C(=O)O)C(=O)OC(C)(C)C",
    "Tested system": "ACE-2 (Homo sapiens)",
    "Ki": "< 100 nM"
  },
  {
    "Compound": "CC(C)CC(N[C@@H](Cc1cncn1CC1CCCCC1)C(=O)O)C(=O)O (single isomer, unassigned)",
    "Tested system": "ACE-2 (Homo sapiens)",
    "Ki": "> 500 nM"
  }
]

-- ask Would you mind telling me what Ki value was observed for CC(C)CC(N[C@@H](Cc1cncn1Cc1cc(C(F)(F)F)cc(C(F)(F)F)c1)C(=O)O)C(=O)O (single isomer, unassigned) ?
-- reply > 500 nM

-- ask Consider the compound `CC(C)C[C@H](N[C@@H](CNC(=O)c1cccc(Cl)c1)C(=O)O)C(=O)O` and give its measured Ki.
-- reply > 500 nM

-- ask Which Ki reading was recorded for the compound Cc1cccc(Cn2cncc2C[C@H](NC(CC(C)C)C(=O)O)C(=O)O)c1 (single isomer, unassigned) [HO] ?
-- reply < 100 nM

* * *

Molecular target: ACE-2 (Homo sapiens, UniProt Q9BYF1)
Construct: a stop codon inserted after the serine immediately preceding the transmembrane domain; made in house; host or cells: CHO K1 cells (transient transfection, purified from conditioned medium)
Sequence (Q9BYF1 18-740 limits assumed): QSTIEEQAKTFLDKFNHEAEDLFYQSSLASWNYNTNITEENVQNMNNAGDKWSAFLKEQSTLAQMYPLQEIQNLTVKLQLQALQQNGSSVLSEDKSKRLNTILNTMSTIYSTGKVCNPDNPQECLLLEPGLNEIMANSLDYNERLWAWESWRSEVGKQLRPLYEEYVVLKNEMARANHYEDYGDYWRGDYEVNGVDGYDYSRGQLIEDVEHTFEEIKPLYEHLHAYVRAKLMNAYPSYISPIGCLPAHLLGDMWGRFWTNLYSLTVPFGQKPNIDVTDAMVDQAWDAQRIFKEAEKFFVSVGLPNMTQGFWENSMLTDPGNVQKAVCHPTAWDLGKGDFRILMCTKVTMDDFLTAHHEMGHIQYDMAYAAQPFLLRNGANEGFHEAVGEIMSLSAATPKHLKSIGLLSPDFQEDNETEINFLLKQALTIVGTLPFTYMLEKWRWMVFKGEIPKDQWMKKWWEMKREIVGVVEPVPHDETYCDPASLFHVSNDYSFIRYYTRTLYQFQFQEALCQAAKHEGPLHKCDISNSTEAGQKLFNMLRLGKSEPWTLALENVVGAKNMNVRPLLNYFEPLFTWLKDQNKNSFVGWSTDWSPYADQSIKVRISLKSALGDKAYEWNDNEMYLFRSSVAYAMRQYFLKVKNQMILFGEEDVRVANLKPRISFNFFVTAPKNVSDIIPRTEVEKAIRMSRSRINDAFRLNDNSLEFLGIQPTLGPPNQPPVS
Assay: ACE-2 Competitive Substrate Assay (ACS Assay)
Type: biochemical
Settings: Ki class per key; compounds tested in 5% DMSO, 12 compound concentrations, 25° C.; Ki=Kiapp/(1+[S]/Km); read-out: Human ACE-2 Activity
pKi: −log10 of the molar value.
Endpoint: pKi

Here are 4 compounds together with their reported answers.
[
  {
    "Compound": "CC(C)C[C@H](N[C@@H](Cc1ccc(NC(=O)c2cc(F)cc(F)c2)cc1)C(=O)O)C(=O)O",
    "Tested system": "ACE-2 (Homo sapiens, UniProt Q9BYF1)",
    "pKi": "> 7.00"
  },
  {
    "Compound": "CC(C)C[C@H](N[C@@H](Cc1ccc(-c2csc3ccccc23)cc1)C(=O)O)C(=O)O",
    "Tested system": "ACE-2 (Homo sapiens, UniProt Q9BYF1)",
    "pKi": "> 7.00"
  },
  {
    "Compound": "C[C@H](N[C@@H](Cc1cncn1Cc1cc(Cl)cc(Cl)c1)C(=O)O)C(=O)O",
    "Tested system": "ACE-2 (Homo sapiens, UniProt Q9BYF1)",
    "pKi": "> 7.00"
  },
  {
    "Compound": "CC(C)C[C@H](N[C@@H](Cc1ccc(C(=O)NCc2cc(F)cc(F)c2)cc1)C(=O)O)C(=O)O",
    "Tested system": "ACE-2 (Homo sapiens, UniProt Q9BYF1)",
    "pKi": "< 6.30"
  }
]

-- ask Could you share which pKi value was measured for CC(C)C[C@H](N[C@@H](C/C=C\c1cc(Cl)cc(Cl)c1)C(=O)O)C(=O)O (stereo in doubt) ?
-- reply > 7.00

-- ask For `CC(C)C[C@H](N[C@@H](Cc1ccc(C(=O)NCc2ccccc2)cc1)C(=O)O)C(=O)O` , what is its reported pKi?
-- reply < 6.30

-- ask Request the reported pKi associated with `C[C@@H](N[C@@H](Cc1cncn1Cc1cc(Cl)cc(Cl)c1)C(=O)O)C(=O)O`
-- reply < 6.30

-- ask Fill blank: measured pKi of the compound `CC(C)C[C@H](N[C@@H](Cc1ccccc1OCc1csc2ccc(Cl)cc12)C(=O)O)C(=O)O` is ____.
-- reply < 6.30

-- ask I am curious: what pKi value has been reported for `CC(C)C[C@H](N[C@@H](Cc1cccc(Cc2cc(Cl)cc(Cl)c2)c1)C(=O)O)C(=O)O` ?
-- reply 6.30 to 7.00

-- ask Recorded pKi of `CC(C)C[C@H](N[C@@H](Cc1ccccc1C#N)C(=O)O)C(=O)O` , please.
-- reply 6.30 to 7.00

-- ask Data request, read-out pKi, for `CC(C)C[C@H](N[C@@H](Cc1ccc(-c2ccncc2)cc1)C(=O)O)C(=O)O`
-- reply 6.30 to 7.00

-- ask What value of measured pKi is listed for `Cc1ccc(-c2ccc(C[C@H](N[C@@H](CC(C)C)C(=O)O)C(=O)O)cc2)nc1` ?
-- reply > 7.00

-- ask Which pKi value belongs to `CC(C)C[C@H](N[C@@H](Cc1ccccc1Oc1cc(Cl)cc(Cl)c1)C(=O)O)C(=O)O` ?
-- reply > 7.00
